Data provenance is ChEMBL document CHEMBL1154179.

- assayed-system: ATP-dependent translocase ABCB1 (Homo sapiens)
- assay-name: Modulation of P-gp overexpressed in human A2780 cells assessed as daunorubicin accumulation preincubated 15 mins prior to daunorubicin addition measured after 180 mins by fluorescence assay
pEC50: −log10 of the molar value.
Classification field: Fulfilled = pEC50 at or over 6; Not fulfilled = pEC50 under 6.

| molecule | category-label |
| --- | --- |
| CSc1nc(N)c2c3c(sc2n1)CCCC3 | Not fulfilled |
| CCSc1nc(N)c2c3c(sc2n1)CCCC3 | Fulfilled |
| Cc1sc2nc(SC(C(=O)O)c3ccccc3)nc(N)c2c1C (configuration not stated) | Not fulfilled |

Query: Check the entry Nc1nc(SC(C(=O)O)c2ccccc2)nc2sc3c(c12)CCCC3 (configuration not stated) : does pEC50 equal or exceed 6?
Result: Not fulfilled

Query: Reported pEC50 reaches at least 6 for Nc1nc(SCCc2ccccc2)nc2sc3c(c12)CCOC3 ?
Result: Fulfilled

Query: Confirm if pEC50 reported for the molecule CCOC(=O)CSc1nc(N)c2c3c(sc2n1)CCCC3 is 6 or above.
Result: Not fulfilled

Query: API: above_or_equal(metric=pEC50, cutoff=6) for item CCOC(=O)CSc1nc(N)c2c3c(sc2n1)CCC3
Result: Not fulfilled

Query: Tell me whether pEC50 is at least 6 here: Cc1sc2nc(SCCc3ccccc3)nc(N)c2c1C
Result: Not fulfilled

Query: Decide: is the reported value of pEC50 for Nc1nc(SCC(=O)c2ccccc2)nc2sc3c(c12)CCCC3 equal to or greater than 6?
Result: Fulfilled

----------
- assayed-system: ATP-dependent translocase ABCB1 (Homo sapiens)
- assay-name: Modulation of P-gp overexpressed in human A2780 cells assessed as daunorubicin accumulation at 31.6 uM by MTT assay
- Type: cell-based
- condition-context: a2780, 31.6 µM
property: Activity

| structure-as-smiles | experimental-result |
| --- | --- |
| Nc1nc(SCCc2ccccc2)nc2sc3c(c12)CCCC3 | Active |
| Cc1sc2nc(SCCc3ccccc3)nc(N)c2c1C | Active |
| CCOC(=O)CSc1nc(N)c2c(C)c(C)sc2n1 | Active |
| CCOC(=O)CSc1nc(N)c2c3c(sc2n1)CCCC3 | Active |

----------
- assayed-system: ATP-dependent translocase ABCB1 (Homo sapiens, UniProt P08183)
- Sequence (P08183 whole entry): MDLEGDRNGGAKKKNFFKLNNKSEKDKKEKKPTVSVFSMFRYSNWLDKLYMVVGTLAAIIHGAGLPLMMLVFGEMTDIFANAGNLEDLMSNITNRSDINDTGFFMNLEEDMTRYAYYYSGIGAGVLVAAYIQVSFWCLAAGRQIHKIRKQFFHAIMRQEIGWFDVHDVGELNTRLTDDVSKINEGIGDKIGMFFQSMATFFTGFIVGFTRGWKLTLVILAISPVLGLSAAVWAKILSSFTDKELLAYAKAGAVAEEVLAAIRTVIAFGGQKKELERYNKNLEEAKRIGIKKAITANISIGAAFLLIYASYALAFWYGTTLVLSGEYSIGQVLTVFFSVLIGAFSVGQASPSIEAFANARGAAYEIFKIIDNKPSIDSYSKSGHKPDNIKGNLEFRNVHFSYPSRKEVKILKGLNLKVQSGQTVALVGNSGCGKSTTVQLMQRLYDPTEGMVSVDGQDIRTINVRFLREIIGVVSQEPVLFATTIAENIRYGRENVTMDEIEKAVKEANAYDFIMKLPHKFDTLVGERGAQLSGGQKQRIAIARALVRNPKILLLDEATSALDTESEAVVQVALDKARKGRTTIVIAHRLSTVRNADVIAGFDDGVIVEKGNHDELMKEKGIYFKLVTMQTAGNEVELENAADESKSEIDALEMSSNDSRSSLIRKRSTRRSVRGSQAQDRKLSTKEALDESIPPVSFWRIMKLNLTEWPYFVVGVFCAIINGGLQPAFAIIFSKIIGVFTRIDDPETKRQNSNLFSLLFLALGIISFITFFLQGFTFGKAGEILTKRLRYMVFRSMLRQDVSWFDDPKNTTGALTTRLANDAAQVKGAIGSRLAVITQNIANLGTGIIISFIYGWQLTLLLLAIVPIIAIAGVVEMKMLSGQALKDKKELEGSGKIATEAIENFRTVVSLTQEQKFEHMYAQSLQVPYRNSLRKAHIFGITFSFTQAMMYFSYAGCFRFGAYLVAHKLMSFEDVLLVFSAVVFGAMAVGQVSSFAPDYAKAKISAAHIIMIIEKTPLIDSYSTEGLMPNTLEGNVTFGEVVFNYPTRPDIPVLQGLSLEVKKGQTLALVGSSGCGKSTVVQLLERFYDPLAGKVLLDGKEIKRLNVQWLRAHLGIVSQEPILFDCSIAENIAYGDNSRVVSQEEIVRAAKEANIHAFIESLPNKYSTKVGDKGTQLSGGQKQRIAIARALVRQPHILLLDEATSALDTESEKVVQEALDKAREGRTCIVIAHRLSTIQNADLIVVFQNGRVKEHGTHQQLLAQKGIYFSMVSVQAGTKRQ
- assay-name: Modulation of P-gp overexpressed in human A2780 cells assessed as daunorubicin accumulation preincubated 15 mins prior to daunorubicin addition measured after 180 mins by fluorescence assay
EC50 values, listed per item
Please give a number only; it is taken to be in µM.

| structure-as-smiles | EC50 / µM |
| --- | --- |
| Nc1nc(SCCc2ccccc2)nc2sc3c(c12)CCC3 | 0.97 |
| Nc1nc(SCCc2ccccc2)nc2sc3c(c12)CCCC3 | 1.02 |

Now turn to the next compound.
Query: // fetch ATP-dependent translocase ABCB1 (Homo sapiens, UniProt P08183) EC50 for COc1cc2nc(SCCc3ccccc3)nc(N)c2cc1OC
Result: 1.52
